Measurement notes: Inhibition of IL-5 in mouse pro-B Y16 cells after 48 hrs by WST1 assay
pIC50: −log10 of the molar value.
Measurement kind: pIC50

Solved cases below.
>>> print(df.to_string())
                                   compound  measurement_kind  result
0  COc1cccc2occ(/C=C/C(O)c3ccc(O)cc3)c(=O)c12 (centres undefined)             pIC50  < 4.52
1  O=C(/C=C/c1coc2cccc(OCC3CCCCC3)c2c1=O)c1ccc(C(F)(F)F)cc1             pIC50  < 4.52
2  CC(C)(C)c1ccc(C(O)/C=C/c2coc3cccc(OCC4CCCCC4)c3c2=O)cc1 (centres undefined)             pIC50  < 4.52

Please give the measured pIC50 for this compound: "COc1cccc2occ(/C=C/C(=O)c3ccc(O)cc3)c(=O)c12" < 4.52

Please give the measured pIC50 for this compound: "O=C(/C=C/c1coc2cccc(OCC3CCCCC3)c2c1=O)c1ccc([N+](=O)[O-])cc1" < 4.52

Please give the measured pIC50 for this compound: "O=C(/C=C/c1coc2cccc(OCC3CCCCC3)c2c1=O)c1ccccc1" < 4.52

Please give the measured pIC50 for this compound: "O=C(/C=C/c1coc2cccc(OCC3CCCCC3)c2c1=O)c1ccc(F)cc1" < 4.52

Please give the measured pIC50 for this compound: Cc1ccc(C(O)/C=C/c2coc3cccc(OCC4CCCCC4)c3c2=O)cc1 (centres undefined) 4.82

Please give the measured pIC50 for this compound: "N#Cc1ccc(C(=O)/C=C/c2coc3cccc(OCC4CCCCC4)c3c2=O)cc1" < 4.52

Please give the measured pIC50 for this compound: O=c1c(/C=C/C(O)c2ccc(F)cc2)coc2cccc(OCC3CCCCC3)c12 (centres undefined) 5.19

Please give the measured pIC50 for this compound: "COc1ccc(C(=O)/C=C/c2coc3cccc(OCC4CCCCC4)c3c2=O)cc1" < 4.52

Please give the measured pIC50 for this compound: O=c1c(/C=C/C(O)c2ccccc2)coc2cccc(OCC3CCCCC3)c12 (centres undefined) 4.82

Please give the measured pIC50 for this compound: "CC(C)(C)c1ccc(C(=O)/C=C/c2coc3cccc(OCC4CCCCC4)c3c2=O)cc1" 4.74

Please give the measured pIC50 for this compound: O=c1c(/C=C/C(O)c2ccc([N+](=O)[O-])cc2)coc2cccc(OCC3CCCCC3)c12 (centres undefined) 5.15

----------
Measurement notes: Inhibition of IL-5 in mouse pro-B Y16 cells after 48 hrs by WST1 assay
Measurement kind: IC50 (µM)

>>> print(df.to_string())
                                   compound  measurement_kind  endpoint_unit  quantitative_result
0  O=c1c(/C=C/C(O)c2ccc(Cl)cc2)coc2cccc(OCC3CCCCC3)c12 (stereo not given)              IC50             µM                    7
1  O=c1c(/C=C/C(O)c2ccc(C(F)(F)F)cc2)coc2cccc(OCC3CCCCC3)c12 (stereo not given)              IC50             µM                 13.2
2  O=c1c(/C=C/C(O)c2ccc(O)cc2)coc2cccc(OCC3CCCCC3)c12 (stereo not given)              IC50             µM                 12.5
3  O=C(/C=C/c1coc2cccc(OCC3CCCCC3)c2c1=O)c1ccc(O)cc1              IC50             µM                 16.2
4  CC(C)COc1cccc2occ(/C=C/C(=O)c3ccc(O)cc3)c(=O)c12              IC50             µM                 19.1

[1] COc1ccc(C(O)/C=C/c2coc3cccc(OCC4CCCCC4)c3c2=O)cc1 (stereo not given)
[2] N#Cc1ccc(C(O)/C=C/c2coc3cccc(OCC4CCCCC4)c3c2=O)cc1 (stereo not given)
[3] Cc1ccc(C(=O)/C=C/c2coc3cccc(OCC4CCCCC4)c3c2=O)cc1
Order the entries by their reported IC50, beginning at the minimum. Response format: the labels, sorted as the prompt asks. 2, 1, 3
(2: 6.7 µM, 1: 16 µM, 3: 25.1 µM)
